- assay_system: HLA-A*0301 (human)
- assay: competition with 125I-labelled standard peptide for purified HLA, gel filtration
binding affinity ratio (IC50 of standard peptide / IC50 of test peptide) less than 0.002 is 1 (yes); binding affinity ratio (IC50 of standard peptide / IC50 of test peptide) greater than or equal to 0.002 is 0 (no).

PLCPEEKQR (modifications not checked)	1 (yes)
CVQSTHVDIR (modifications not checked) [HPV16 E7 peptide …]	0 (no)
LIRCINCQK (modifications not checked)	0 (no)
TTLEQQYNK (modifications not checked)	0 (no)
NIRGRWTGR (modifications not checked)	1 (yes)
AVCDKCLK (modifications not checked) [HPV16 E6 peptide AVCDKCLK]	0 (no)

Moving on to the next binder.
Please indicate whether the reported binding affinity ratio (IC50 of standard peptide / IC50 of test peptide) of IILECVYCK (modifications not checked) is strictly below 0.002.
1 (yes)

Provenance of the data: patent US7026443
